Data provenance is PubChem BioAssay.

Catalogue of z-score readings, one per entry.
# assay.info: FRG1 promoter luciferase signal modulators, primary screen, FRG1 inhibition for FSHD, cell-based, C2C12 myotubes, firefly/Renilla luciferase, luminescence (AID 1084)
# measurement.setup: higher = more signal, called active from +8 up or from −8 down
// no unit, no text: just the number

> print(dat)
                                chem.smiles  meas.value
1  C=C(CCCC)C(=O)CC[C@H](OC(C)=O)c1cccc(OCCO)c1       0.818
2  CC(C)C[C@@H]1NC(=O)[C@@H]2C[C@H](C(=O)NCCCCCN)[C@H](c3cccc(OCCO)c3)N2C1=O      -0.284
3  C=C(/C(=C/C[C@@H](OC(C)=O)c1ccc(OCCO)cc1)c1cnc2ccccc2c1)C(C)C       -1.06

Attention now turns to another entry.
Name the reported z-score value associated with the molecule COC(=O)[C@@]1(Cc2ccccc2)[C@H]2c3cc(C(=O)N4CCCC4)n(Cc4cccc5ccccc45)c3C[C@H]2CN1C(=O)c1ccccc1
-0.165

====

In this section, each of the molecules is paired with its reported composite z-score.
# assay.info: small-molecule microarray binders of probe aLefty2, primary screen, biochemical, biotinylated probe, 635/667 nm fluorescence (AID 1094);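 note: score merges spot fluorescence near 667 nm with spot signal-to-noise ratio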
# measurement.setup: higher = more signal
Kindly provide the number alone.

Examples with their reported composite z-score follow.
> print(dat)
                                   molecule           endpoint  meas.value
1  NCCCCCNC(=O)[C@@H]1C[C@@H]2C(=O)N[C@@H](Cc3ccccc3)C(=O)N2[C@@H]1c1cccc(OCCO)c1  composite z-score     -0.0075
2  CCc1oc(CC[C@@H](CO)NC(=O)NCCn2cc(C3(O)CCCCC3)nn2)c(C(=O)OC)c1C(=O)OC  composite z-score     -0.0615
3  CN(C)CCCNC(=O)[C@@]1(c2ccc([N+](=O)[O-])cc2)CC(=O)N(C2CCCCC2)[C@@H]1c1ccc(CO)cc1  composite z-score     -0.0259
4  O=C(NCc1ccccc1)[C@@H]1c2ccccc2C(=O)N(CC23CC4CC(CC(C4)C2)C3)[C@H]1c1ccc(CO)cc1  composite z-score      -0.225
5  O=C1c2ccccc2[C@](Cc2ccccc2I)(C(=O)NC2CC2)[C@H](c2ccc(CO)cc2)N1C1CCCCC1  composite z-score      -0.224
6  C=CC[C@@]1(C(N)=O)N=C(c2ccc(OCCCO)cc2)O[C@@H]1c1ccccc1CN=[N+]=[N-]  composite z-score       0.444

Now consider the entry below.
Can you look up the measured composite z-score of O=C1NC(=O)C2C1C=CC(C(O)Cc1ccccc1)N2Nc1ccc(Cl)cc1Cl (configuration not stated) for me?
-0.0134

====

# assay.info: small-molecule microarray binders of probe aNog, primary screen, biochemical, biotinylated probe, 635/667 nm fluorescence (AID 1115);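 note: probe is biotinylated aNog protein used at 0.15 µg/mL for 1 h at 4 C; z-score combines 667 nm fluorescence of each spot with its signal to noise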
# measurement.setup: higher = more signal
// classify(record): look up composite z-score in ranges b0 = under -0.2, b1 = from -0.2 up to 0.6, b2 = 0.6 and over

compound	label
COCCOC(=O)N1C(=O)[C@@]2(c3cc(C#CCCO)ccc31)[C@H](c1ccc(OCCO)cc1)N1[C@H](c3ccccc3)[C@H](c3ccccc3)OC(=O)[C@H]1[C@@H]2C(=O)N1CCN(c2ncccn2)CC1	b0
OC([C@@H]1CC(c2ccccc2)=NO1)[C@H]1CC(c2ccccc2)=NO1 (some centres undefined)	b0
CC[C@@H]1C=C(C(=O)O)[C@H](c2ccco2)N1S(=O)(=O)c1ccc(C)cc1	b1
CCCC[C@@H]1C[C@H]1[C@@H](NC(=O)c1ccco1)c1ccc(C(=O)OC)cc1	b0
C#CCNC(=O)[C@H](Cc1ccccc1)NC(=O)CCC(=O)O	b0
[N-]=[N+]=NCc1ccccc1C[C@]1(C(=O)NCC(O)CO)N=C(c2ccc(OCCCO)cc2)O[C@H]1c1ccccc1 (some centres undefined)	b2
COc1ccc(NN2C(C(O)c3ccc([N+](=O)[O-])cc3)C=CC3C(=O)N(C4CCCCC4)C(=O)C32)cc1 (centres undefined)	b2
CN1C(=O)C2C=CC(C(O)C3CC=CCC3)N(NC(=O)OC(C)(C)C)C2C1=O (centres undefined)	b1

GET /class?item= [N-]=[N+]=Nc1ccccc1C[C@]1(C(N)=O)N=C(c2ccc(OCCCO)cc2)O[C@H]1c1ccccc1
b0

Please give the result for C#CCN(Cc1ccccc1Br)C(/C=C/c1ccccc1)CO (centres undefined) too.
b0

CCOC1=C2C(CN(S(=O)(=O)c3ccc(C)cc3)C2c2ccc(C)cc2)C2C(=O)N(c3ccccc3)C(=O)C2C1 (centres undefined) ?
b1

Moving on to COC(=O)[C@@]1(Cc2ccccc2)[C@H]2c3cc(C(=O)N(C)C)n(CCSCCO)c3C[C@H]2CN1C(=O)c1ccccc1
b2

Same question, COCCOC(=O)N1C(=O)[C@@]2(c3cc(C#Cc4ccc(OC)cc4)ccc31)[C@H](c1ccccc1OCCO)N1[C@H](c3ccccc3)[C@H](c3ccccc3)OC(=O)[C@H]1[C@@H]2C(=O)N1CCN(c2ncccn2)CC1 this time
b1

Query O=C1OCCC/C=C\[C@H]2OC34C=CCN(Cc5ccccc5)C(=O)[C@H]3N(CCCCCCO)C(=O)[C@@H]4C12 (some centres undefined) next
b0

What about CN1C(=O)C2C=CC(C(O)C3CCCCC3)N(Nc3ccc([N+](=O)[O-])cc3[N+](=O)[O-])C2C1=O (centres undefined) ?
b2

====

# target.under.test: Luciferin 4-monooxygenase (Photinus pyralis)
# assay.info: firefly luciferase enzyme inhibitors, primary screen, biochemical, luminescence, purified enzyme, 2006 set (AID 1141);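 note: cell-free assay with purified firefly luciferase at 100 ng per well in PBS; test concentration not given here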
# measurement.setup: SteadyGlo luminescence, 30 min, higher = more signal, called active from +8 up or from −8 down
z-score overview
Returns: the value as a bare number; no unit string appended.

Solved entries:
compound	z-score
C=CCC(OC(C)=O)[C@@H]1[C@@H](N(Cc2ccc(-c3ccccc3)cc2)C(=O)Cc2ccc(F)cc2)c2cc(OCCCO)ccc2N1C(=O)c1ccc(-c2ccccc2)cc1 (stereo not given in full)	1.03
COC(=O)[C@@]1(Cc2ccc(OC)cc2)[C@H]2c3cc(C(=O)N4CCCC4)n(Cc4ccc(OC)c(OC)c4)c3C[C@H]2CN1C(=O)c1ccccc1	2.16

Given the entry COc1cc2c(cc1O)C=[N+](Cc1cccc(OC(F)(F)F)c1)CC2 , what z-score was observed with Luciferin 4-monooxygenase (Photinus pyralis)?
-0.847

Next up: CN1C(=O)C2C=CC(C(O)c3ccccc3)N(Nc3ccccc3)C2C1=O (stereo not given)
-0.315

Next: COCCOC(=O)N1C(=O)[C@@]2(c3cc(C#CCCO)ccc31)[C@H](C(=O)N1CCc3cc(OC)c(OC)cc3C1)[C@H]1C(=O)O[C@H](c3ccccc3)[C@H](c3ccccc3)N1[C@@H]2c1ccc(O)cc1
-0.407

Another: O=C(NCc1ccccc1)[C@@H]1c2ccccc2C(=O)N(CC23CC4CC(CC(C4)C2)C3)[C@H]1c1ccc(CO)cc1
-0.715

Could you do the same for CCCC=C(CCC)[C@@H](NC(=O)Oc1ccc(F)cc1)c1ccc(C(=O)OC)cc1 , please?
0.516

====

# target.under.test: NADPH oxidase 2 (Homo sapiens)
# assay.info: NOX2-dependent H2O2 signal modulators, primary screen, NOX inhibitor project, cell-based, HEK293-NOX2, PMA-stimulated, Amplex Red fluorescence (AID 1159); note: test concentration not given here
# measurement.setup: 45 min, higher = more signal, called active from +8 up or from −8 down
Each record gets a class by z-score: low group: < -0.8; middle group: ≥ -0.8 and < 0.9; high group: ≥ 0.9

Study these solved cases before continuing.
molecule	label
C=CC[C@@]1(C(=O)N(C)C)N=C(c2ccc(OCCCO)cc2)O[C@@H]1c1ccccc1N=[N+]=[N-]	low group
COCCOC(=O)N1C(=O)[C@@]2(c3cc(C#CCCO)ccc31)[C@H](C(=O)N1CCc3cc(OC)c(OC)cc3C1)[C@H]1C(=O)O[C@H](c3ccccc3)[C@H](c3ccccc3)N1[C@@H]2c1ccc(O)cc1	high group
COc1ccc(C(=O)Nc2ccc(CN3C(=O)[C@@]4(O[C@@H](CCO)[C@H]([Si](C)(C)c5ccc(OC)cc5)[C@H]4C)c4ccccc43)cc2)cc1	low group
CCCCN1CC=CC23O[C@@H]4C=CCOC(=O)[C@@H]4[C@H]2C(=O)N(CCCCCO)[C@@H]3C1=O (some centres undefined)	middle group
CCOC(=O)[C@H]1CC=C2CC1C(=O)N1CCC[C@@H]1[C@@H]2O[Si](C)(C)C(C)(C)C (some centres undefined)	middle group

// switching to the query molecule
Hello team, could you let me know which band the following molecule falls into: CCOC(=O)C1=CCC(c2ccc(C)cc2)N(S(=O)(=O)c2ccc(C)cc2)C1 (centres undefined)
middle group

====

# target.under.test: E3 ubiquitin-protein ligase XIAP (Homo sapiens) (UniProt P98170)
# Sequence (P98170 whole entry, looked up): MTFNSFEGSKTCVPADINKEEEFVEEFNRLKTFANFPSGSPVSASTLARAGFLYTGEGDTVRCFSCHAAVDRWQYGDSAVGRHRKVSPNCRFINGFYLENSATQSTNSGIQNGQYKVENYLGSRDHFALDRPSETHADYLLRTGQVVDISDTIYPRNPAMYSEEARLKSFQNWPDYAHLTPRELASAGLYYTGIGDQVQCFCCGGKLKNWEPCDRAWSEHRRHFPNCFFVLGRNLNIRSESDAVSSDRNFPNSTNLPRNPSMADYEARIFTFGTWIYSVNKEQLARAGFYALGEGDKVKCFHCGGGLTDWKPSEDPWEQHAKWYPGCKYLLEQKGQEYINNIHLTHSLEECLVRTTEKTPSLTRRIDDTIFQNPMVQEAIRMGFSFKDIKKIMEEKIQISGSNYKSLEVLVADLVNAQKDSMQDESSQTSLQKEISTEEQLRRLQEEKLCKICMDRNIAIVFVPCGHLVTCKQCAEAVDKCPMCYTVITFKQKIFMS
# assay.info: XIAP binders, primary screen, biophysical, small-molecule microarray, fluorescence 635 nm (AID 1181);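 note: score merges 667 nm emission and signal to noise over triplicate slides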
# measurement.setup: small-molecule microarray binding, higher = more signal
We begin with a simple list: items and their reported composite z-score.
Output spec: single numeric token, no unit.

Reported composite z-score for E3 ubiquitin-protein ligase XIAP (Homo sapiens) (UniProt P98170), given CCc1oc(CC[C@@H](CO)NC(=O)NCCn2cc(C3(O)CCCCC3)nn2)c(C(=O)OC)c1C(=O)OC ?
-0.0078

Now try [N-]=[N+]=Nc1ccccc1C[C@]1(C(N)=O)N=C(c2ccc(OCCCO)cc2)O[C@H]1c1ccccc1 .
-0.108

Same for CC(C)(C)OC(=O)CC[C@@]12N=C(c3ccc(OCCCO)cc3)O[C@@H]1c1ccccc1N(CCS(=O)(=O)c1ccccc1)C2=O
0.0801

Next entry: COc1ccc(CCNC(=O)[C@@H]2c3ccccc3C(=O)N(C3Cc4ccccc4C3)[C@H]2c2ccc(CO)cc2)cc1
0.126

// same read-out, input: CCC(CC)C(O)C1C=CC2C(=O)N(C)C(=O)C2N1Nc1ccccc1 (stereo not given)
0.661

Field entry: CCCC#C[Si](O[C@H](CC)c1cn([C@H](CO)Cc2ccccc2)nn1)(C(C)C)C(C)C
-0.121

Same again, this time with [N-]=[N+]=Nc1ccccc1C[C@@]1(C(=O)NCCN2CCOCC2)N=C(c2ccc(OCCCO)cc2)O[C@@H]1c1ccccc1
0.0831

Query CCOC(=O)C1=CCC(c2ccccc2)N(S(=O)(=O)CC[Si](C)(C)C)C1 (stereo not given) next
-0.192

Can you check Cc1ccc(S[C@]2(C(=O)NCCN3CCOCC3)CC(=O)N(Cc3ccccc3Cl)[C@@H]2c2ccc(CO)cc2)cc1 next?
0.0428

Also need COC(=O)[C@@]1(Cc2ccc(OC)cc2)[C@H]2c3cc(C(=O)N(C)C)n(Cc4cccc5ccccc45)c3C[C@H]2CN1C(=O)c1ccccc1 , thanks.
0.101
